Where do these numbers come from? They come from patent US10844077B2.

Subject Of Test: MAPKAPK3 (Homo sapiens (Human), UniProt Q16644)
Sequence (Q16644 whole entry, looked up): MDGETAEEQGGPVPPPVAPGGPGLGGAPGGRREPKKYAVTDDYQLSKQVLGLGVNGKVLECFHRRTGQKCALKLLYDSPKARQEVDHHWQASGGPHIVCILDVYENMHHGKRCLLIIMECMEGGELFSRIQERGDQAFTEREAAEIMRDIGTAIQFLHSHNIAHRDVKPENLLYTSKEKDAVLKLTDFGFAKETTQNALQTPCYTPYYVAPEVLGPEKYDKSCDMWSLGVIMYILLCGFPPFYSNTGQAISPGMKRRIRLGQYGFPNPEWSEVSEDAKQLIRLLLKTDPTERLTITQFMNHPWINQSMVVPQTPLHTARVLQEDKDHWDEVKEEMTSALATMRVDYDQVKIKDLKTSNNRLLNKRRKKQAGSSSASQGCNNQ
Endpoint Label: % change of MS signal compared to control sample (%)

                                   compound                           subject_of_test  quantitative_result
0  C=CC(=O)N1CCC(CNc2nccc(Nc3ncc(C(=O)Nc4c(C)cccc4C)s3)n2)C1 (racemic)  MAPKAPK3 (Homo sapiens (Human), UniProt Q16644)                  0.5
1  C=CC(=O)N1CC[C@@H](Nc2nccc(Nc3ncc(C(=O)Nc4c(C)cccc4C)s3)n2)C1  MAPKAPK3 (Homo sapiens (Human), UniProt Q16644)                  7.0
2  C=CC(=O)N1CCC(Cn2ccc(Nc3ncc(C(=O)Nc4c(C)cccc4Cl)s3)n2)C1 (stereo not shown)  MAPKAPK3 (Homo sapiens (Human), UniProt Q16644)                  6.2
3  C=CC(=O)N1CCCCC(Nc2nccc(Nc3ncc(C(=O)Nc4c(C)cccc4C)s3)n2)C1 (stereo not shown)  MAPKAPK3 (Homo sapiens (Human), UniProt Q16644)                  0.9

----------
Subject Of Test: MLKL (Homo sapiens (Human), UniProt Q8NB16)
Sequence (Q8NB16 whole entry): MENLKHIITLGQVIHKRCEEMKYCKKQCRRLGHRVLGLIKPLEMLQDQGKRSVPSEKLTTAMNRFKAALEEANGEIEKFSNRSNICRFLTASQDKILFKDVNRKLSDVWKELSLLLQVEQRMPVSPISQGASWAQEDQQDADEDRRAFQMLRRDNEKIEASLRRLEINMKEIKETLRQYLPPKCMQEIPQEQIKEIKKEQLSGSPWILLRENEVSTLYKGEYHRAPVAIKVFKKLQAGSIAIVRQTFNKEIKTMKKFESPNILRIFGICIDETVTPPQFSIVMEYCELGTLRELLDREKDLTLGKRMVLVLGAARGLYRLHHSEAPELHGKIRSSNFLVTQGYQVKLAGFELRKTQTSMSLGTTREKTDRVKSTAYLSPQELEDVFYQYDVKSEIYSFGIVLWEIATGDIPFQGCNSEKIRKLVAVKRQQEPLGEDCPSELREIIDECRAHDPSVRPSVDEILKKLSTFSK
Assay Name: KINATIV assay
Format: cell-based
Cond: 1 μM, 90 minutes, BCWM.1 cells
% change of MS signal compared to control sample values, listed per item
Endpoint Label: % change of MS signal compared to control sample (%)

>>> print(df.to_string())
                                   molecule  unit_symbol  quantitative_result
0  C=CC(=O)N1CCC(CNc2nccc(Nc3ncc(C(=O)Nc4c(C)cccc4C)s3)n2)C1 (racemic)            %                −17.5
1  C=CC(=O)N1CCCCC(Nc2nccc(Nc3ncc(C(=O)Nc4c(C)cccc4C)s3)n2)C1 (stereo not shown)            %                 −6.3
2  C=CC(=O)N1CC[C@@H](Nc2nccc(Nc3ncc(C(=O)Nc4c(C)cccc4C)s3)n2)C1            %                 −9.4
3  C=CC(=O)N1CCC(Cn2ccc(Nc3ncc(C(=O)Nc4c(C)cccc4Cl)s3)n2)C1 (stereo not shown)            %                 −0.8

----------
Subject Of Test: RSK3 domain1 (Homo sapiens (Human), UniProt Q15349)
Sequence (Q15349 whole entry, the tested form may be a part): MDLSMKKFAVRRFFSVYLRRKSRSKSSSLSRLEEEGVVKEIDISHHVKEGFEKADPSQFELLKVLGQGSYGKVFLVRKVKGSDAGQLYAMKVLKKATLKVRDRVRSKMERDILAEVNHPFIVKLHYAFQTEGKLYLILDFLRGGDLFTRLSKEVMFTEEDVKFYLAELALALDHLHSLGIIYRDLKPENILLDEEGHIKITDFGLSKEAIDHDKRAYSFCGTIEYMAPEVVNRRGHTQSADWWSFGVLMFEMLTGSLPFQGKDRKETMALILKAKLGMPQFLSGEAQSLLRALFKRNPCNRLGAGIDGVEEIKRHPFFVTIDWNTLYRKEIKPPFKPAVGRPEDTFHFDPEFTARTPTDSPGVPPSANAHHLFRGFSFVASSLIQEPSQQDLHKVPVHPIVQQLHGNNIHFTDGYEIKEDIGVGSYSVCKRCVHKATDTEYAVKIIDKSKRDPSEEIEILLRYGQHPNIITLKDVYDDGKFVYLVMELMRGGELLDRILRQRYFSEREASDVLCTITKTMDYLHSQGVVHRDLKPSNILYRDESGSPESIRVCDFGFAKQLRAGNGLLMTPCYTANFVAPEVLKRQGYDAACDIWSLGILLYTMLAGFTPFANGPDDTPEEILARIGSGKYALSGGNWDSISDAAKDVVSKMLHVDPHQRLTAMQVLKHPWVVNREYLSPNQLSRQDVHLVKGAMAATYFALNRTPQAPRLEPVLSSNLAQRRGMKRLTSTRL
Assay Name: KINATIV assay
Assay type: cell-based
Cond: 1 μM, 90 minutes, BCWM.1 cells
The entries below are paired with their reported % change of MS signal compared to control sample.
Endpoint Label: % change of MS signal compared to control sample (%)

>>> print(df.to_string())
                                   compound                           subject_of_test  quantitative_result
0  C=CC(=O)N1CCCCC(Nc2nccc(Nc3ncc(C(=O)Nc4c(C)cccc4C)s3)n2)C1 (stereo not shown) [Example I-7]  RSK3 domain1 (Homo sapiens (Human), UniProt Q15349)                −48.6
1  C=CC(=O)N1CCC(Cn2ccc(Nc3ncc(C(=O)Nc4c(C)cccc4Cl)s3)n2)C1 (stereo not shown) [II-1]  RSK3 domain1 (Homo sapiens (Human), UniProt Q15349)                −58.4
2  C=CC(=O)N1CC[C@@H](Nc2nccc(Nc3ncc(C(=O)Nc4c(C)cccc4C)s3)n2)C1 [Example I-4]  RSK3 domain1 (Homo sapiens (Human), UniProt Q15349)                −26.9
3  C=CC(=O)N1CCC(CNc2nccc(Nc3ncc(C(=O)Nc4c(C)cccc4C)s3)n2)C1 (racemic) [Example I-8]  RSK3 domain1 (Homo sapiens (Human), UniProt Q15349)                −62.5
